- Assay procedure: Elimination half life in po or iv dosed rat
- Assay type: ADME, organism-based
- Cond: in vivo, read-out: beta t1/2 (converted)
Measurement type: half-life (h)
Respond with the bare value in h.

Find the recorded half-life belonging to Cc1cc(-c2ccc(N3CCC(c4nc(C(C)C)no4)CC3)nc2)c(C#N)cc1C#N and report it.
2.6

----------
- Assay procedure: Half life in rat liver microsomes at 1 uM measured up to 60 mins by LC-MS/MS analysis
- Assay type: ADME, Microsome
Measurement type: half-life at 1 µM (min)
Respond with the bare value in min.

Find the recorded half-life at 1 µM belonging to COc1ccc(-c2cc(=O)[nH]c(=S)n2CCO)c(OC)c1 and report it.
8.6

----------
- Assay procedure: Half life in rat plasma at 1 uM incubated for 0 to 120 mins by LC-MS/MS method
- Assay type: ADME, cell-free
Measurement type: half-life at 1 µM

Find the recorded half-life at 1 µM belonging to Cc1cc(-c2ccc(N3CCC(c4nc(C(C)C)no4)CC3)nc2)c(C#N)cc1C#N and report it.
> 6.17 h

----------
- Assay procedure: Volume of distribution at steady state in po or iv dosed rat
- Format: ADME, organism-based
- Cond: in vivo, read-out: Vdss
Measurement type: Vd
Answer as a quantity: numeral, then unit.

Find the recorded Vd belonging to Cc1cc(-c2ccc(N3CCC(c4nc(C(C)C)no4)CC3)nc2)c(C#N)cc1C#N and report it.
3 L/kg

----------
- Assay procedure: AUC(0 to infinity) in human carrying CYP3A5*1/*3 allele at 300 mg, po measured up to 32 hrs
- Assay type: ADME, organism-based
- Design: dose 300 mg, route oral, time infinity
- Cond: in vivo
Measurement type: AUC(0-inf) (ng·h/mL)
Respond with the bare value in ng·h/mL.

Find the recorded AUC(0-inf) belonging to Cc1nnc(C(C)C)n1[C@@H]1C[C@H]2CC[C@@H](C1)N2CC[C@H](NC(=O)C1CCC(F)(F)CC1)c1ccccc1 and report it.
1760

----------
- Assay procedure: Half life in human liver microsomes at 1 uM measured up to 60 mins by LC-MS/MS analysis
- Type: ADME, Microsome
Measurement type: half-life at 1 µM

Find the recorded half-life at 1 µM belonging to COc1ccc(-c2cc(=O)[nH]c(=S)n2CCO)c(OC)c1 and report it.
> 2 h

----------
- Assay procedure: Half life in dog plasma at 1 uM incubated for 0 to 120 mins by LC-MS/MS method
- Format: ADME, cell-free, Canis lupus familiaris
Measurement type: half-life at 1 µM

Find the recorded half-life at 1 µM belonging to CC(C)OC(=O)N1CCN(c2ncc(-c3ccc4nccnc4c3)cc2C#N)CC1 and report it.
> 6.17 h

----------
- Assay procedure: Half life in guinea pig plasma at 1 uM incubated for 0 to 120 mins by LC-MS/MS method
- Type: ADME, cell-free, Cavia porcellus
Measurement type: half-life at 1 µM

Find the recorded half-life at 1 µM belonging to Cc1cc(-c2ccc(N3CCC(c4nc(C(C)C)no4)CC3)nc2)c(C#N)cc1C#N and report it.
> 6.17 h

----------
- Assay procedure: Plasma clearance in Wistar-Han rat at 1 mg/kg, iv measured up to 24 hrs by LC-MS/MS analysis
- Assay type: ADME, organism-based
Measurement type: clearance (mL/min/kg)
Respond with the bare value in mL/min/kg.

Find the recorded clearance belonging to COc1ccc(-c2cc(=O)[nH]c(=S)n2CCO)c(OC)c1 and report it.
73
